# pEC50 values compiled below
Assay: Growth inhibition of rat ASK cells after 72 hrs by SRB assay
Format: functional
Conditions: read-out: ED50 (the source's name)
pEC50 is defined as minus the log10 of a concentration measured in mol/L.

INSERT INTO assay_data (chem_smiles, reported) VALUES
  ('CC(C)(C)[Si](OC[C@@]1(C)[C@H]2CC[C@@]3(CO3)[C@@H](/C=C/C3=CCOC3=O)[C@]2(C)CC[C@H]1O)(c1ccccc1)c1ccccc1', 5.17),
  ('C=C1CC[C@@H]2[C@](C)(CO[Si](C)(C)C(C)(C)C)[C@H](OC(C)=O)CC[C@@]2(C)[C@@H]1/C=C/C1=CCOC1=O', 4.79),
  ('Cc1c2ccncc2c(C)c2c1[nH]c1ccccc12', 5.66),
  ('C=C1CC[C@@H]2[C@](C)(CO[Si](C)(C)C(C)(C)C)[C@H](O)CC[C@@]2(C)[C@@H]1/C=C/C1=CCOC1=O', 5.02);

Prompt: What measured pEC50 goes with C[C@]1(COC(c2ccccc2)(c2ccccc2)c2ccccc2)[C@H]2CC[C@@]3(CO3)[C@@H](/C=C/C3=CCOC3=O)[C@]2(C)CC[C@H]1O ?
Completion: 5.19

Prompt: What about C=C1CC[C@@H]2[C@](C)(CO[Si](c3ccccc3)(c3ccccc3)C(C)(C)C)[C@H](O)CC[C@@]2(C)[C@@H]1/C=C/C1=CCOC1=O ?
Completion: 5.11

Prompt: What about CC(C)(C)[Si](C)(C)OC[C@@]1(C)[C@H]2CC[C@@]3(CO3)[C@@H](/C=C/C3=CCOC3=O)[C@]2(C)CC[C@H]1O ?
Completion: 4.72

Prompt: What about CC(=O)O[C@@H]1CC[C@]2(C)[C@H](CC[C@@]3(CO3)[C@H]2/C=C/C2=CCOC2=O)[C@]1(C)COC(c1ccccc1)(c1ccccc1)c1ccccc1 ?
Completion: 5.08

Prompt: What about C=C1CC[C@@H]2[C@](C)(CO[Si](C(C)C)(C(C)C)C(C)C)[C@H](O)CC[C@@]2(C)[C@@H]1/C=C/C1=CCOC1=O ?
Completion: 5.13

Prompt: What about CC(=O)O[C@@H]1CC[C@]2(C)[C@H](CC[C@@]3(CO3)[C@H]2/C=C/C2=CCOC2=O)[C@]1(C)CO[Si](C(C)C)(C(C)C)C(C)C ?
Completion: 4.80

Prompt: What about C=C1CC[C@@H]2[C@](C)(COC(c3ccccc3)(c3ccccc3)c3ccccc3)[C@H](OC(C)=O)CC[C@@]2(C)[C@@H]1/C=C/C1=CCOC1=O ?
Completion: 4.40

----------
Assay: Growth inhibition of human HEK293 cells after 72 hrs by SRB assay
Assay type: cell-based
Settings: read-out: ED50
# GI50 at 72 h values compiled below

A selection of reference data follows.
INSERT INTO measurements (chem_smiles, readout, reported) VALUES
  ('C=C1CC[C@@H]2[C@](C)(COC(C)=O)[C@H](OC(C)=O)CC[C@@]2(C)[C@@H]1/C=C/C1=CCOC1=O', 'GI50 at 72 h', '25 µM'),
  ('CC(C)(C)[Si](OC[C@@]1(C)[C@H]2CC[C@@]3(CO3)[C@@H](/C=C/C3=CCOC3=O)[C@]2(C)CC[C@H]1O)(c1ccccc1)c1ccccc1', 'GI50 at 72 h', '4.97 µM'),
  ('C=C1CC[C@@H]2[C@](C)(CO[Si](C(C)C)(C(C)C)C(C)C)[C@H](OC(C)=O)CC[C@@]2(C)[C@@H]1/C=C/C1=CCOC1=O', 'GI50 at 72 h', '8.28 µM'),
  ('CC(=O)O[C@@H]1CC[C@]2(C)[C@H](CC[C@@]3(CO3)[C@H]2/C=C/C2=CCOC2=O)[C@]1(C)CO[Si](C)(C)C(C)(C)C', 'GI50 at 72 h', '18.1 µM'),
  ('C=C1CC[C@@H]2[C@](C)(CO[Si](C)(C)C(C)(C)C)[C@H](O)CC[C@@]2(C)[C@@H]1/C=C/C1=CCOC1=O', 'GI50 at 72 h', '6.61 µM'),
  ('C=C1CC[C@@H]2[C@](C)(CO)[C@H](O)CC[C@@]2(C)[C@@H]1/C=C/C1=CCOC1=O', 'GI50 at 72 h', '7.53 µM');

Attention now turns to another entry.
Prompt: What measured GI50 at 72 h goes with C=C1CC[C@@H]2[C@](C)(CO[Si](c3ccccc3)(c3ccccc3)C(C)(C)C)[C@H](O)CC[C@@]2(C)[C@@H]1/C=C/C1=CCOC1=O ?
Completion: 4.4 µM
